tested on: Fibroblast; assay: Multiplex assay against human fibroblast; assay type: toxicity, cell-based; conditions: 12 h, 10 µM, compound concentration 10 uM, replicate 1
Population Fragmented Nuclei (%) less than 20% is fulfilled; Population Fragmented Nuclei (%) greater than or equal to 20% is not fulfilled.

{"columns": ["molecule", "qualitative label"],
 "data": [
  ["COC(=O)C1=C(C)NC(C)=C(C(=O)OCCCN2CCC(c3ccccc3)(c3ccccc3)CC2)[C@H]1c1cccc([N+](=O)[O-])c1", "fulfilled"],
  ["CCc1ccc(OCc2ccccc2C(=O)Nc2ccc3nc(C)cc(N)c3c2)cc1.Cl", "fulfilled"]
]}

Query: Say whether its Population Fragmented Nuclei (%) is strictly beneath 20%. Entry: `O=c1cc(N2CCOCC2)oc2c(-c3cccc4c3sc3ccccc34)cccc12`
Reply: not fulfilled

Query: Field entry: `CN1CCN(Cc2ccc(Nc3ncc(Cl)c(Nc4ccccc4S(=O)(=O)N(C)C)n3)cc2)CC1`
Reply: fulfilled
